Exercise: state measured pEC50 for each of the compounds provided.
Molecular target: S1P1 (membranes prepared from S1P1/CHO cells) (Homo sapiens (Human))
Sequence (P21453 whole entry): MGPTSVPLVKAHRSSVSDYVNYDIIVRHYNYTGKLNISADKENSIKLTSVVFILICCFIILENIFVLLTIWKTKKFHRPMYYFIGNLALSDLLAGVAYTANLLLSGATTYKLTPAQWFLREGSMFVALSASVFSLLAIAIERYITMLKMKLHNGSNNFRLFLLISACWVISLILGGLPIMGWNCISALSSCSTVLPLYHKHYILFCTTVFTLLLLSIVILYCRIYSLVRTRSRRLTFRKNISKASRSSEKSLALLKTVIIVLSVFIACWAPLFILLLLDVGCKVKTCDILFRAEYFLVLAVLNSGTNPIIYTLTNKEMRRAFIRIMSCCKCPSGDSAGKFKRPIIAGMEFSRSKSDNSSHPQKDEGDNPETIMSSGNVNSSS
Experiment: Receptor [35S] GTPγS binding assay (S1P1 GTPγS)
Format: biochemical
Settings: phosphate examples; read-out: S1P1 GTPγS
pEC50: −log10 of the molar value.

Past entries and their recorded results:
COMPOUND	TESTED_SYSTEM	pEC50
C=CCCCOC[C@@H]1CCc2cc([C@H]3CC[C@](N)(COP(=O)(O)O)C3)ccc2C1 [compound 454]	S1P1 (membranes prepared from S1P1/CHO cells) (Homo sapiens (Human))	7.00 to 8.00
CC(C)=CCOC[C@@H]1CCc2cc([C@H]3CC[C@](N)(COP(=O)(O)O)C3)ccc2C1 [compound 453]	S1P1 (membranes prepared from S1P1/CHO cells) (Homo sapiens (Human))	7.00 to 8.00
COc1ccc(C[C@@H]2CCc3cc([C@H]4CC[C@](N)(COP(=O)(O)O)C4)ccc3C2)c(C)c1 [compound 546]	S1P1 (membranes prepared from S1P1/CHO cells) (Homo sapiens (Human))	6.00 to 7.00
CCCSCC[C@H]1CCc2cc([C@H]3CC[C@](N)(COP(=O)(O)O)C3)ccc2C1 [compound 534]	S1P1 (membranes prepared from S1P1/CHO cells) (Homo sapiens (Human))	> 8.00
COc1cccc(F)c1CC[C@H]1CCc2cc([C@@H]3CC[C@@](N)(COP(=O)(O)O)C3)ccc2C1 (single isomer, unassigned) [compound 607]	S1P1 (membranes prepared from S1P1/CHO cells) (Homo sapiens (Human))	6.00 to 7.00

Hey, can you go through the list below and give me pEC50 for every item?
1. CCCSC[C@H]1CCc2cc([C@H]3CC[C@](N)(COP(=O)(O)O)C3)ccc2C1 [compound 532]
2. CCCC=CCOC[C@@H]1CCc2cc([C@H]3CC[C@](N)(COP(=O)(O)O)C3)ccc2C1 [compound 462]

Result string:
> 8.00
> 8.00
